Data provenance is patent US9302996B2.

tested on: C57BL/6J mice; test: Antifeeding activity (high fat diet intake up to 4 hours); type: in vivo; conditions: Mus musculus, male C57BL/6J mice, 5 mg/kg oral, food ingested up to 4 hours, read-out: Antifeeding rate (5 mg/kg)
Exercise: for every item that follows, state its recorded inhibition in vivo at 5 mg/kg.
Answers are plain numbers, in %.

// below: answered compounds
• CC(C)(COc1ccc(-c2ccc(-c3ncc(C(F)(F)F)[nH]3)cc2)cn1)C(=O)O [Example 3-3)] = 76
• CC(C)(COc1ccc(-c2cnc(-c3ncc(C(F)(F)F)[nH]3)cn2)cc1)C(=O)O [Example 7-7)] = 75
• CCCc1cnc(-c2ccc(-c3ccc(OCC(C)(C)C(=O)O)cc3)nc2)[nH]1 [Example 32] = 42
• CC(C)Cc1cnc(-c2ccc(-c3ccc(OCC(C)(C)C(=O)O)cc3)nc2)[nH]1 [Example 26] = 79
• Cc1cc(OCC(C)(C)C(=O)O)ncc1-c1ccc(-c2ncc(CC3CC3)[nH]2)c(Cl)c1 [Example 121] = 57
• Cc1cc(OCC(C)(C)C(=O)O)ncc1-c1cnc(-c2ncc(C(F)(F)F)[nH]2)c(Cl)c1 [Example 112] = 52
• CC(C)(COc1ccc(-c2cnc(-c3ncc(C(F)(F)F)[nH]3)c(F)c2)cn1)C(=O)O [Example 141] = 55

Let us examine a further case.
## Task Given the compound COc1cc(OCC(C)(C)C(=O)O)ccc1-c1ccc(-c2ncc(C(F)(F)F)[nH]2)cn1 [Example 86-3)] , what is its reported inhibition in vivo at 5 mg/kg?
## Result 21

----------
system: C57BL/6J mice; assay: Antifeeding activity (high fat diet intake up to 4 hours); format: in vivo; conditions: Mus musculus, male C57BL/6J mice, 5 mg/kg oral, food ingested up to 4 hours, read-out: Antifeeding rate (5 mg/kg)
test.readout: inhibition in vivo at 5 mg/kg (%)
Give bare numbers, in %.

Worked set:
- Cc1cc(OCC(C)(C)C(=O)O)ncc1-c1cnc(-c2ncc(C(F)(F)F)[nH]2)c(F)c1 [Example 107]: 57
- CCC(CC)c1cnc(-c2ccc(-c3ccc(OCC(C)(C)C(=O)O)cc3)nc2)[nH]1 [Example 29]: 28
- CC(C)(COc1ccc(-c2ccc(-c3ncc(C4(C(F)(F)F)CC4)[nH]3)cn2)cc1)C(=O)O [Example 6-3)]: 71
- CC(C)(COc1ccc(-c2ccc(-c3ncc(C(F)(F)F)[nH]3)cn2)cc1)CC(=O)O [Example 65]: 79
- CC(C)(COc1ccc(-c2ccc(-c3ncc(C(C)(C)C(F)(F)F)[nH]3)cn2)cc1)C(=O)O [Example 2-2)]: 64
- CC(C)(COc1ncc(-c2ccc(-c3ncc(C(C)(C)C(F)(F)F)[nH]3)cc2)cc1F)C(=O)O [Example 143]: 4
- O=C(O)C1(COc2ccc(-c3ccc(-c4ncc(C(F)(F)F)[nH]4)cn3)cc2)CCC1 [Example 14]: 66

We next turn to a different molecule, shown below.
## Task I have this molecule here, Cc1cc(OCC(C)(C)C(=O)O)ncc1-c1ccc(-c2ncc(C(F)(F)C(F)(F)F)[nH]2)c(F)c1 [Example 124] , and I need its recorded inhibition in vivo at 5 mg/kg.
## Result 75

----------
test system: C57BL/6J mice; assay: Antifeeding activity (high fat diet intake up to 4 hours); format: in vivo; conditions: Mus musculus, male C57BL/6J mice, 5 mg/kg oral, food ingested up to 4 hours, read-out: Antifeeding rate (5 mg/kg)
test.readout: inhibition in vivo at 5 mg/kg
Write the numeric value and append its unit.

* Cc1cc(OCC(C)(C)C(=O)O)ncc1-c1cnc(-c2ncc(C(F)(F)F)[nH]2)c(C)c1 | 59%
* Cc1cc(OCC(C)(C)C(=O)O)ncc1-c1ccc(-c2ncc(C(C)(C)C(F)(F)F)[nH]2)nc1 | 44%

Let us examine a further case.
## Task Give the measured inhibition in vivo at 5 mg/kg of Cc1cc(OCC2(C(=O)O)CC2)ccc1-c1ccc(-c2ncc(C(F)(F)F)[nH]2)cn1 .
## Result 29%
